System: Norovirus
Assay: Antiviral activity against Norovirus infected in HG23 cells assessed as inhibition of viral replication at 24 hrs by qRT-PCR analysis
Format: functional
Details: read-out: ED50 (the source's name)
pEC50: −log10 of the molar value.
quantity_kind: pEC50

[[record]]
molecule_smiles = "Cl.O=C(CNS(=O)(=O)NCc1cccc(Oc2ccccc2)c1)N1CCN(Cc2ccccc2)CC1"
tgt = "Norovirus"
quantity_kind = "pEC50"
meas_value = 5.24

[[record]]
molecule_smiles = "CN(CC(=O)NCCN1CCOCC1)S(=O)(=O)NCc1cccc(Oc2ccccc2)c1.Cl"
tgt = "Norovirus"
quantity_kind = "pEC50"
meas_value = 5.00

[[record]]
molecule_smiles = "O=C(CNS(=O)(=O)NCc1cccc(Oc2ccccc2)c1)NCCN1CCOCC1"
tgt = "Norovirus"
quantity_kind = "pEC50"
meas_value = 5.29

[[record]]
molecule_smiles = "O=C(CN(Cc1ccccc1)S(=O)(=O)NCc1cccc(Oc2ccccc2)c1)NCCN1CCOCC1"
tgt = "Norovirus"
quantity_kind = "pEC50"
meas_value = 5.41

